tested on: Mycobacterium tuberculosis; experiment: microbe, parasite or virus in culture; settings: H37Rv, THP-1, 96 h
Description: Antitubercular activity against Mycobacterium tuberculosis H37Rv infected in human THP1 macrophages incubated for 4 days by luciferase reporter gene assay
The following compounds are listed with their measured IC50 values.
Write the number in nM without appending the unit.

Below, each entry is followed by its recorded IC50 result.
{"compoundStructure": "Cc1c(CN2CCOCC2)cc(-c2ccc(C(C)C)cc2)n1Cc1ccc(F)cc1", "endpointResult": 160}
{"compoundStructure": "COCCn1c(-c2ccc(C(C)C)cc2)cc(CN2CCOCC2)c1C", "endpointResult": 1320}

Here is the next item to consider.
Task: Read off the recorded IC50 for Cc1c(CN2CCOCC2)cc(-c2ccc(C(C)C)cc2)n1C1CCC1
Result: 80

Where do the numbers come from? From ChEMBL document CHEMBL4251653.
